Assay: Human HepG2 cell viability assay in 384 well format
Assay type: toxicity, cell-based
Design: dose 125 nL, time 70.5 hour; concentration not given beside the values
Conditions: HepG2 cells, read-out: Inhibition
measuredParameter: cytotoxicity at 70.5 h (%)
Entry rule: numbers only, all in %.

Sample answers from the record:
- compound: "CNC(=O)NCc1nn(-c2ccccc2)c2c1CCC2"
  cytotoxicity at 70.5 h, %: -4.98
- compound: "CCNC(=O)NC(=O)C(C)Nc1ccccc1OCCOC (configuration not stated)"
  cytotoxicity at 70.5 h, %: -11.3
- compound: "Cc1cccc2nc(CN3CCC(Cn4ccnn4)CC3)cc(=O)n12"
  cytotoxicity at 70.5 h, %: -3.54
- compound: "COc1cc(S(=O)(=O)Nc2cn[nH]c2)ccc1Br"
  cytotoxicity at 70.5 h, %: -12.7
- compound: "O=C(c1cccs1)N1CCC2(CC1)CC(Oc1ccccc1)CO2 (configuration not stated)"
  cytotoxicity at 70.5 h, %: -10.8
- compound: "O=C(CCNc1ncccn1)NCc1ccc(Br)s1"
  cytotoxicity at 70.5 h, %: -11.3
- compound: "COc1cccc(CN(C)C(C)C(=O)Nc2nc(C)c(C)s2)c1 (configuration not stated)"
  cytotoxicity at 70.5 h, %: -11.4
- compound: "Cc1ccc(C(=O)N2CC[C@H]3[C@@H]2CCC(=O)N3c2cccnc2)o1"
  cytotoxicity at 70.5 h, %: -13.5

Summary for this compound, CCc1nc(CN2CCN(C(=O)c3csc(C(C)C)n3)CC2)no1 : cytotoxicity at 70.5 h is 33.2

Summary for this compound, Cc1ccc2cccc(C(=O)N3CCN(c4cccnn4)CC3)c2n1 : cytotoxicity at 70.5 h is -9.4

Summary for this compound, Cc1ccc(C)c(OCCN(C)C(=O)CCc2cn[nH]c2)c1 : cytotoxicity at 70.5 h is -12.7

Summary for this compound, c1cc(CN2CCOC[C@H]2c2nc(-c3ccncc3)c[nH]2)ccn1 : cytotoxicity at 70.5 h is 1.86

Summary for this compound, Cc1cc(C)n2nc(C(=O)N[C@H]3C[C@H]4CN(C)CCN4C3)cc2n1 : cytotoxicity at 70.5 h is -6.02

Summary for this compound, O=C1NCC2=C1C(c1ccccc1)Nc1ccccc1N2 (configuration not stated) : cytotoxicity at 70.5 h is -2.81

Summary for this compound, Cc1ccc(C(=O)N2CC[C@@H](N(C)C)[C@@H]2Cc2cnn(C)c2)cn1 : cytotoxicity at 70.5 h is -10.1

Summary for this compound, Cc1cccc(C2CCN(S(=O)(=O)c3cn(C)cn3)CC2)n1 : cytotoxicity at 70.5 h is -8.21

Summary for this compound, Cc1noc(CNC(=O)[C@@H](C)NC(=O)OC(C)(C)C)n1 : cytotoxicity at 70.5 h is -2.55

Summary for this compound, OC1CN(Cc2cccc(N3CCOCC3)c2)Cc2ccccc21 (configuration not stated) : cytotoxicity at 70.5 h is -0.922

----------
Assay: Human HepG2 cell viability dose-response assay
Type: toxicity, cell-based
measuredParameter: TOP
Answer with a bare number; do not write a unit.

Sample answers from the record:
- compound: "CC1(C)Cc2nc(C(C)(C)C)ncc2C(NC(=O)C2(N)CC2)C1 (stereo unspecified)"
  TOP: 0
- compound: "CC(C)OCCN1CCC(Nc2nccnc2C#N)CC1"
  TOP: 100
- compound: "CC(C)N(C)C(=O)c1ccc(CNc2ccncc2Cl)cc1"
  TOP: 0
- compound: "CN(C(=O)[C@H]1CSCN1C(=O)OC(C)(C)C)C1CC1"
  TOP: 0
- compound: "CCS(=O)(=O)N1CCc2ccc(NC(=O)Nc3cccc(SC)c3)cc21"
  TOP: 100

We now examine a further compound.
Summary for this compound, O=C(c1cccc2cccnc12)N1CC[C@@]2(CCCO2)[C@@H](O)C1 : TOP is 100
